Listed below: activity at 0.097656 µM values for each entry.
- test target: SARS-CoV-2 3CLpro enzyme (Severe acute respiratory syndrome coronavirus 2)
- procedure summary: biochemical
- condition notes: dose-dependent study, 0.097656 uM, individual values; read-out: % activity
Numbered stars: 1 amine (or outer) side, 2 acyl side, 3 side chain; on linkers, the order of the positions; unused ones are H or OH. Bridge positions count the residues as written; N and C are the ends. Square brackets hold non-standard residues; d marks the D form. Peptide text beside a SMILES is read from it. * marks the point of attachment. hTyr(3S-OH,4S-OH,3'-OSO3H) = N[C@H](C(=O)O)[C@H](O)[C@@H](O)c1ccc(O)c(OS(=O)(=O)O)c1; Orn(4R-OH,5R-OH) = O=C([C@H](C[C@@H](O)[C@@H](O)N[*:3])N[*:1])[*:2]; Pro(3S-OH,4S-Me) = C[C@H]1CN[C@H](C(=O)O)[C@H]1O; X1 = CCCCCOc1ccc(-c2cc(-c3ccc(C(=O)*)cc3)no2)cc1; Gln(3R-OH) = NC(=O)C[C@@H](O)[C@H](N)C(=O)O; Hyp = O=C(O)[C@@H]1C[C@@H](O)CN1
Express your answer in %, writing the number without its unit.

Recorded activity at 0.097656 µM, per entry:
CCCCCOc1ccc(-c2cc(-c3ccc(C(=O)N[C@H]4C[C@@H](O)[C@@H](O)NC(=O)[C@@H]5[C@@H](O)[C@@H](C)CN5C(=O)[C@H]([C@H](O)CC(N)=O)NC(=O)[C@H]([C@H](O)[C@@H](O)c5ccc(O)c(OS(=O)(=O)O)c5)NC(=O)[C@@H]5C[C@@H](O)CN5C(=O)[C@H]([C@@H](C)O)NC4=O)cc3)no2)cc1 [Micafungin] (X1-[Orn(4R-OH,5R-OH)]T[Hyp][hTyr(3S-OH,4S-OH,3'-OSO3H)][Gln(3R-OH)][Pro(3S-OH,4S-Me)]; lactam 1-C)
103
CCC[C@@]1(CCc2ccccc2)CC(O)=C([C@H](CC)c2cccc(NS(=O)(=O)c3ccc(C(F)(F)F)cn3)c2)C(=O)O1 [Tipranavir]
101
Cc1cnc(C(=O)N[C@H]2CCCCC/C=C\[C@@H]3C[C@@]3(C(=O)NS(=O)(=O)C3CC3)NC(=O)[C@@H]3C[C@@H](Oc4nc5ccccc5c5ccccc45)CN3C2=O)cn1 [Paritaprevir]
101

Could you share which activity at 0.097656 µM value was measured for CC(C)(C)NC(=O)N[C@H](C(=O)N1C[C@H]2[C@@H]([C@H]1C(=O)NC(CC1CCC1)C(=O)C(N)=O)C2(C)C)C(C)(C)C (stereo partly shown) [Boceprevir] ? 75.2

====

- test target: SARS-CoV-2 3CLpro enzyme (Severe acute respiratory syndrome coronavirus 2, UniProt P0DTD1)
- procedure summary: biochemical
- condition notes: 50 µM drug, DMSO treated control = 100%, mean of 3 values, data of Figs. 2-4
Entries and their percent enzymatic activity, AVG
Number first, unit second: that is the form wanted.

// below: answered compounds
CC(C)Nc1cccnc1N1CCN(C(=O)c2cc3cc(NS(C)(=O)=O)ccc3[nH]2)CC1 [Delavirdine (mesylate), Delavirdine]
98.4623%
CC(C)(C)OC(=O)N[C@H]1CCCCC/C=C\[C@@H]2C[C@@]2(C(=O)NS(=O)(=O)C2CC2)NC(=O)[C@@H]2C[C@@H](OC(=O)N3Cc4cccc(F)c4C3)CN2C1=O
74.5742%

Then there is this compound:
# get_value(readout= percent enzymatic activity, AVG, system= SARS-CoV-2 3CLpro enzyme (Severe acute respiratory syndrome coronavirus 2, UniProt P0DTD1)) for `Cc1cc(C#N)cc(C)c1Oc1nc(Nc2ccc(C#N)cc2)nc(N)c1Br` 92.1775%

====

- test target: SARS-CoV-2 3CLpro enzyme (Severe acute respiratory syndrome coronavirus 2, UniProt P0DTD1)
- procedure summary: biochemical
- condition notes: 50 µM drug, DMSO treated control = 100%, mean of 3 values, data of Figs. 2-4
measured quantity: percent enzymatic activity, AVG (%)
All answers are understood in %, so give the number only.

What value of percent enzymatic activity, AVG has been reported for the following molecule? CCC(C)n1ncn(-c2ccc(N3CCN(c4ccc(OCC5COC(Cn6cncn6)(c6ccc(Cl)cc6Cl)O5)cc4)CC3)cc2)c1=O (stereo not shown) 88.3209

Thanks! And `CN(C)C(=O)COC(=O)Cc1ccc(OC(=O)c2ccc(NC(=N)N)cc2)cc1` ? 99.5392

Would you kindly repeat that for `CC(C)c1nc(CN(C)C(=O)N[C@H](C(=O)N[C@@H](Cc2ccccc2)C[C@H](O)[C@H](Cc2ccccc2)NC(=O)OCc2cncs2)C(C)C)cs1` ? 86.9432

Lookup `CCOC(=O)c1c(CSc2ccccc2)n(C)c2cc(Br)c(O)c(CN(C)C)c12` 84.9148

====

Measured activity at 0.390625 µM of individual entries
- test target: SARS-CoV-2 3CLpro enzyme (Severe acute respiratory syndrome coronavirus 2)
- procedure summary: biochemical
- condition notes: dose-dependent study, 0.390625 uM, individual values; read-out: % activity
Numbered stars: 1 amine (or outer) side, 2 acyl side, 3 side chain; on linkers, the order of the positions; unused ones are H or OH. Bridge positions count the residues as written; N and C are the ends. Square brackets hold non-standard residues; d marks the D form. Peptide text beside a SMILES is read from it. * marks the point of attachment. hTyr(3S-OH,4S-OH,3'-OSO3H) = N[C@H](C(=O)O)[C@H](O)[C@@H](O)c1ccc(O)c(OS(=O)(=O)O)c1; Orn(4R-OH,5R-OH) = O=C([C@H](C[C@@H](O)[C@@H](O)N[*:3])N[*:1])[*:2]; Pro(3S-OH,4S-Me) = C[C@H]1CN[C@H](C(=O)O)[C@H]1O; X1 = CCCCCOc1ccc(-c2cc(-c3ccc(C(=O)*)cc3)no2)cc1; Gln(3R-OH) = NC(=O)C[C@@H](O)[C@H](N)C(=O)O; Hyp = O=C(O)[C@@H]1C[C@@H](O)CN1
Field: value (include unit after the number)

As a guide, the following entries are already answered.
CC(C)(C)NC(=O)N[C@H](C(=O)N1C[C@H]2[C@@H]([C@H]1C(=O)NC(CC1CCC1)C(=O)C(N)=O)C2(C)C)C(C)(C)C (stereo partly shown)
77.1%
CCCCCOc1ccc(-c2cc(-c3ccc(C(=O)N[C@H]4C[C@@H](O)[C@@H](O)NC(=O)[C@@H]5[C@@H](O)[C@@H](C)CN5C(=O)[C@H]([C@H](O)CC(N)=O)NC(=O)[C@H]([C@H](O)[C@@H](O)c5ccc(O)c(OS(=O)(=O)O)c5)NC(=O)[C@@H]5C[C@@H](O)CN5C(=O)[C@H]([C@@H](C)O)NC4=O)cc3)no2)cc1 [Micafungin] (X1-[Orn(4R-OH,5R-OH)]T[Hyp][hTyr(3S-OH,4S-OH,3'-OSO3H)][Gln(3R-OH)][Pro(3S-OH,4S-Me)]; lactam 1-C)
94.9%
CCC[C@@]1(CCc2ccccc2)CC(O)=C([C@H](CC)c2cccc(NS(=O)(=O)c3ccc(C(F)(F)F)cn3)c2)C(=O)O1
104%

Here is another compound to look at.
May I ask what activity at 0.390625 µM has been recorded for `Cc1cnc(C(=O)N[C@H]2CCCCC/C=C\[C@@H]3C[C@@]3(C(=O)NS(=O)(=O)C3CC3)NC(=O)[C@@H]3C[C@@H](Oc4nc5ccccc5c5ccccc45)CN3C2=O)cn1` ? 113%

====

Overview of reported percent enzymatic activity, AVG across a group of compounds:
- test target: SARS-CoV-2 3CLpro enzyme (Severe acute respiratory syndrome coronavirus 2, UniProt P0DTD1)
- procedure summary: biochemical
- condition notes: 50 µM drug, DMSO treated control = 100%, mean of 3 values, data of Figs. 2-4
Record the value in %, omitting the unit from your answer.

Recorded percent enzymatic activity, AVG, per entry:
Nc1nc(NC2CC2)c2ncn([C@H]3C=C[C@@H](CO)C3)c2n1
88.4066
CC[C@@H]([C@H](C)O)n1ncn(-c2ccc(N3CCN(c4ccc(OC[C@@H]5CO[C@@](Cn6cncn6)(c6ccc(F)cc6F)C5)cc4)CC3)cc2)c1=O
83.4752
CCC(CC)[C@H](NC(C)=O)[C@@H]1[C@H](O)[C@@H](C(=O)O)C[C@H]1N=C(N)N
102.233
COc1cc2c(cc1Cc1cccc(Cl)c1F)c(=O)c(C(=O)O)cn2[C@H](CO)C(C)C
83.3787
CC(C)(C)[C@@H]1NC(=O)O[C@@H]2CCC[C@H]2OC/C=C/C(F)(F)c2nc3ccccc3nc2O[C@@H]2C[C@@H](C(=O)N[C@]3(C(=O)NS(=O)(=O)C4(C)CC4)C[C@H]3C(F)F)N(C2)C1=O
92.2682

Would you kindly look at the next entry?
Name the reported percent enzymatic activity, AVG value associated with the compound `CCC[C@H](NC(=O)[C@@H]1[C@H]2CCC[C@H]2CN1C(=O)[C@@H](NC(=O)[C@@H](NC(=O)c1cnccn1)C1CCCCC1)C(C)(C)C)C(=O)C(=O)NC1CC1` 64.1119
